B1: Gamma-crystallin D, residues 90 to 170; numbered along this chain, P07320 (parent)
chain: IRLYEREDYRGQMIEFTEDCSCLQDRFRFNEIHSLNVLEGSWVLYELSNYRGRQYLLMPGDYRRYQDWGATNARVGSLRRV

Variants of: B1
Assay: abundance fitness (aPCA) (normalised: wild type 0, dead -1); higher = more abundant; growth selection in yeast, the domain comes from the species named
Settings: Homo sapiens
Lab note: compare abundance fitness against 0.02. Equal or greater, write Y. Smaller, write N.

Some solved cases for reference:
- L23Q: N
- D8N: N
- Y4V: N
- R28D: Y
- R51L: Y

Reported abundance fitness at or above 0.02? `E18L` N

Reported abundance fitness at or above 0.02? `L35Q` N

Reported abundance fitness at or above 0.02? `P59L` N

Reported abundance fitness at or above 0.02? `C20L` N

Reported abundance fitness at or above 0.02? `D8M` N
